# SYSTEM_TESTED: Geranylgeranyl transferase type I (Homo sapiens, UniProt P49354+P53609)
# RUN_DESCRIPTION: Inhibition of Rap1a protein geranylgeranylation in human PSN1 cells
Listed here: items and their measured pEC50.
Worth noting: pEC50 values are minus log10 of concentrations stated in mol/L.

Example compounds with recorded pEC50:
| SMILES_DATA | TEST_VALUE |
| --- | --- |
| CCC[C@@]1(c2cccc(Oc3cc([C@](C)(N)c4cncn4C)ccc3C#N)c2)CCCCN(C)C1=O | 6.66 |
| CC[C@@]1(c2cccc(Oc3cc([C@](C)(N)c4cncn4C)ccc3C#N)c2)CCCCN(C)C1=O | 6.33 |
| CC[C@]1(c2cccc(Oc3cc([C@@](C)(N)c4cncn4C)ccc3C#N)c2)CCCCN(C)C1=O | 5.49 |

# input for lookup
(Q) What value of measured pEC50 is listed for CN1CCCC[C@@](CC2CC2)(c2cccc(Oc3cc([C@](C)(N)c4cncn4C)ccc3C#N)c2)C1=O ?
(A) 7.06
